experiment: clinical; details: human, in vivo, iv, 80 mg/m2
EXPERIMENTAL_ENDPOINT: AUC(0-inf) (µg·h/mL)
Give just the number in µg·h/mL; leave the unit off.

// query AUC(0-inf) value for entry CC(=O)O[C@H]1C(=O)[C@@]2(C)[C@H]([C@H](OC(=O)c3ccccc3)[C@]3(O)C[C@H](OC(=O)[C@H](O)[C@@H](NC(=O)c4ccccc4)c4ccccc4)C(C)=C1C3(C)C)[C@]1(OC(C)=O)CO[C@@H]1C[C@@H]2O [Paclitaxel, paclitaxel]
4.8

----------
assay: RO4929097 plasma pharmacokinetics; format: in vivo, human; conditions: human, plasma, oral, 10 mg, Half life, 10 mg dose, Cycle 1 Day 17, N = 6, mean ± SD
EXPERIMENTAL_ENDPOINT: half-life

// query half-life value for entry CC(C)(C(=O)NCC(F)(F)C(F)(F)F)C(=O)N[C@@H]1C(=O)Nc2ccccc2-c2ccccc21
20.6 h

----------
experiment: RO4929097 plasma pharmacokinetics; assay type: in vivo, human; details: human, plasma, oral, 20 mg, AUC INF, 20 mg dose, Cycle 1 Day 17, N = 2, mean ± SD
EXPERIMENTAL_ENDPOINT: AUC(0-inf) (ng·h/mL)
Give just the number in ng·h/mL; leave the unit off.

// query AUC(0-inf) value for entry CC(C)(C(=O)NCC(F)(F)C(F)(F)F)C(=O)N[C@@H]1C(=O)Nc2ccccc2-c2ccccc21 [RO4929097]
17400

----------
experiment: RO4929097 plasma pharmacokinetics; assay type: in vivo, human; conditions: human, plasma, oral, 20 mg, Vz/F, 20 mg dose, Cycle 1 Day 1, N = 4, mean ± SD
EXPERIMENTAL_ENDPOINT: Vd/F (L)
Give just the number in L; leave the unit off.

// query Vd/F value for entry CC(C)(C(=O)NCC(F)(F)C(F)(F)F)C(=O)N[C@@H]1C(=O)Nc2ccccc2-c2ccccc21 [RO4929097]
115

----------
test: RO4929097 plasma pharmacokinetics; type: in vivo, human; conditions: human, plasma, oral, 20 mg, AUC INF, 20 mg dose, Cycle 1 Day 1, N = 4, mean ± SD
EXPERIMENTAL_ENDPOINT: AUC(0-inf)

// query AUC(0-inf) value for entry CC(C)(C(=O)NCC(F)(F)C(F)(F)F)C(=O)N[C@@H]1C(=O)Nc2ccccc2-c2ccccc21
5520 ng·h/mL

----------
test: RO4929097 plasma pharmacokinetics; type: in vivo, human; conditions: human, plasma, oral, 10 mg, Half life, 10 mg dose, Cycle 1 Day 15, N = 7, mean ± SD
EXPERIMENTAL_ENDPOINT: half-life (h)
Give just the number in h; leave the unit off.

// query half-life value for entry CC(C)(C(=O)NCC(F)(F)C(F)(F)F)C(=O)N[C@@H]1C(=O)Nc2ccccc2-c2ccccc21 [RO4929097]
20.1

----------
test: RO4929097 plasma pharmacokinetics; format: in vivo, human; conditions: human, plasma, oral, 10 mg, Cmax, 10 mg dose, Cycle 1 Day 1, N = 8, mean ± SD
EXPERIMENTAL_ENDPOINT: Cmax (ng/mL)
Give just the number in ng/mL; leave the unit off.

// query Cmax value for entry CC(C)(C(=O)NCC(F)(F)C(F)(F)F)C(=O)N[C@@H]1C(=O)Nc2ccccc2-c2ccccc21
203

----------
assay: RO4929097 plasma pharmacokinetics; type: in vivo, human; settings: human, plasma, oral, 20 mg, Half life, 20 mg dose, Cycle 1 Day 1, N = 4, mean ± SD
EXPERIMENTAL_ENDPOINT: half-life (h)
Give just the number in h; leave the unit off.

// query half-life value for entry CC(C)(C(=O)NCC(F)(F)C(F)(F)F)C(=O)N[C@@H]1C(=O)Nc2ccccc2-c2ccccc21
22.8

----------
experiment: RO4929097 plasma pharmacokinetics; format: in vivo, human; details: human, plasma, oral, 20 mg, AUC INF, 20 mg dose, Cycle 1 Day 15, N = 3, mean ± SD
EXPERIMENTAL_ENDPOINT: AUC(0-inf) (ng·h/mL)
Give just the number in ng·h/mL; leave the unit off.

// query AUC(0-inf) value for entry CC(C)(C(=O)NCC(F)(F)C(F)(F)F)C(=O)N[C@@H]1C(=O)Nc2ccccc2-c2ccccc21
6730

----------
assay: RO4929097 plasma pharmacokinetics; format: in vivo, human; details: human, plasma, oral, 20 mg, Cmax, 20 mg dose, Cycle 1 Day 15, N = 3, mean ± SD
EXPERIMENTAL_ENDPOINT: Cmax (ng/mL)
Give just the number in ng/mL; leave the unit off.

// query Cmax value for entry CC(C)(C(=O)NCC(F)(F)C(F)(F)F)C(=O)N[C@@H]1C(=O)Nc2ccccc2-c2ccccc21 [RO4929097]
234

----------
test: RO4929097 plasma pharmacokinetics; format: in vivo, human; settings: human, plasma, oral, 20 mg, Cmax, 20 mg dose, Cycle 1 Day 1, N = 4, mean ± SD
EXPERIMENTAL_ENDPOINT: Cmax (ng/mL)
Give just the number in ng/mL; leave the unit off.

// query Cmax value for entry CC(C)(C(=O)NCC(F)(F)C(F)(F)F)C(=O)N[C@@H]1C(=O)Nc2ccccc2-c2ccccc21
324

----------
test: RO4929097 plasma pharmacokinetics; format: in vivo, human; conditions: human, plasma, oral, 20 mg, Half life, 20 mg dose, Cycle 1 Day 17, N = 2, mean ± SD
EXPERIMENTAL_ENDPOINT: half-life (min)
Give just the number in min; leave the unit off.

// query half-life value for entry CC(C)(C(=O)NCC(F)(F)C(F)(F)F)C(=O)N[C@@H]1C(=O)Nc2ccccc2-c2ccccc21
2360

----------
experiment: RO4929097 plasma pharmacokinetics; assay type: in vivo, human; details: human, plasma, oral, 20 mg, Cmax, 20 mg dose, Cycle 1 Day 17, N = 2, mean ± SD
EXPERIMENTAL_ENDPOINT: Cmax
Units required after the number.

// query Cmax value for entry CC(C)(C(=O)NCC(F)(F)C(F)(F)F)C(=O)N[C@@H]1C(=O)Nc2ccccc2-c2ccccc21
422 ng/mL
